# measurement description: gradient 5% acetonitrile 3 min, to 50% in 2 min, to 85% in 15 min, held 3 min, 100 µL/min
# settings: column: Zorbax Extend-C18 2.1 x 50 mm; eluents: water / acetonitrile, 0.1% formic acid
Rule: RP-LC retention time below 700 s gives 1.0, anything at or above gives 0.0.

Does the reported RP-LC retention time of the following compound sit strictly below 700 s? "Cc1ccc(CS(=O)(=O)N[C@@H]2CN(c3ncccn3)C[C@H]2CN(C)C)cc1" 1.0

Does the reported RP-LC retention time of the following compound sit strictly below 700 s? "O=C(Cc1cccs1)Nc1c(C(=O)N2CCN(c3ccccn3)CC2)oc2ccccc12" 1.0

Does the reported RP-LC retention time of the following compound sit strictly below 700 s? "Cc1cccc(CNS(=O)(=O)c2cc(-c3[nH]ncc3C(=O)N3CCCC3)oc2C)c1" 0.0

Does the reported RP-LC retention time of the following compound sit strictly below 700 s? "CN1C(=O)c2cc(S(=O)(=O)NCc3ccccc3)ccc2Oc2cccnc21" 0.0

Does the reported RP-LC retention time of the following compound sit strictly below 700 s? "O=C(NC1CC1)c1nnc(-c2ccc(S(=O)(=O)N3CCCC3)cc2)o1" 0.0

Next:
Does the reported RP-LC retention time of the following compound sit strictly below 700 s? "Cc1cc(C)n(CC(=O)N2CCC[C@H]2c2nc(-c3ccccc3)n[nH]2)n1" 1.0

Does the reported RP-LC retention time of the following compound sit strictly below 700 s? "COc1ccc2[nH]c3c(C)c4ccncc4c(C)c3c2c1" 1.0

Does the reported RP-LC retention time of the following compound sit strictly below 700 s? "COc1ccccc1CN1CN=C(Nc2nc(C)c3ccc(C)cc3n2)NC1" 1.0

Does the reported RP-LC retention time of the following compound sit strictly below 700 s? CCN1CCC(CCNC(=O)C2CCc3sc(C(=O)N4CCCC4)cc3C2)CC1 (stereo unspecified) 1.0

Does the reported RP-LC retention time of the following compound sit strictly below 700 s? "COc1cccc(N2CCN(c3ccnc(SCC(=O)Nc4ccccc4F)n3)CC2)c1" 0.0

* * *

# measurement description: gradient 5% acetonitrile 3 min, to 50% in 2 min, to 85% in 15 min, held 3 min, 100 µL/min
# settings: column: Zorbax Extend-C18 2.1 x 50 mm; eluents: water / acetonitrile, 0.1% formic acid
Recorded RP-LC retention time split into classes interval 1 = under 600 s, interval 2 = from 600 s up to 900 s, interval 3 = 900 s and over

Past entries and their recorded results:
Hi, small favor: classify "Cc1ccccc1Nc1c(-c2cccc(O)c2)nc2ccc(Br)cn12" by its RP-LC retention time when you get a moment. interval 2

Hi, small favor: classify "O=C(Nc1cccc(Cl)c1)Nc1ncc(CCNc2ncnc3ccsc23)s1" by its RP-LC retention time when you get a moment. interval 2

Hi, small favor: classify "COCCNc1c(-c2ccccc2)nc2sc(C(=O)N3CCOCC3)c(C)n12" by its RP-LC retention time when you get a moment. interval 2

Next:
Hi, small favor: classify "O=C(CSc1nnc(CCc2nc3ccccc3[nH]2)o1)NCc1c(F)cccc1F" by its RP-LC retention time when you get a moment. interval 1

Hi, small favor: classify "CCCCNC(=O)CCC(=O)Nc1ccc2nc(N3CCN(C)CC3)cc(C)c2c1" by its RP-LC retention time when you get a moment. interval 1

Hi, small favor: classify "COC(=O)C1=CN(c2ccc(C)cc2)c2ccccc2S1(=O)=O" by its RP-LC retention time when you get a moment. interval 2
